All values here come from patent US20220073643A1.

targetUnderTest: human Claudin18.2 (human)
experimentalProtocol: cell-based or functional assay
recordedEndpoint: CDC EC50
Numeric answer plus unit only.

## Input Field request: CDC EC50 | item: 279E8B8 (antibody, V domains shown) VH: QAYLQQSGAELVRSGASVKISCKASGYTFASHNMHWVKQTPGQGLEWIGYIYPGNGGTKYNQKFTGKATLSADTSSSTAYLQISSLTSEDSAVYFCARDYFGNSFVYWGQGTLVTVSA VL: DIVMTQSPSSLTEKAGEKVSMRCKSSQSLLNSGNQKNYLTWYQQKPGQPPKLLIYWASTRESGVPDRFTGSGSGTDFTLTISSVQADDLAVYYCQNDYMYPFTFGAGTKLELK
## Output 1.27 µg/mL

## Input For the binder shown here, 423B2B5 (antibody, V domains shown) VH: DVQLVESGGGLVQPGGSRKLSCAASGFTFSSFGMHWVRQAPEKGLEWVAYISSGSSPIYYSDTVKGRFTISRDNPKNTLFLQMSSLRSEDTAMYFCARIYYGNSFDHWGQGTLVTVSA VL: DIVMTQSPSSLTVTAGEKVTMNCKSSQSLLNSGNQKNYLTWYQQKPGQPPKLLIYWASTRESGVPDRFTGSGSGTDFTLTISSVQAEDLAVYYCQNDYSYPLTFGAGTKLELK , give the reported CDC EC50.
## Output 29.9 µg/mL

## Input Name the recorded CDC EC50 for 250F4G4 (antibody, V domains shown) VH: QAYLQQSGAELVRSGASVKMSCKASGYTFTSHNMHWVKQTPGQGLEWIGYIYPGNGRTNYNQKFKGKATLTADTSSSTAYMQISSLTSEDSAVYFCTRDYYGNSFAYWGQGTLVTVSA VL: DIVMTQSPSSLTEKVGERVSMSCKSSQSLFNSGNQKNYLTWYQQKPGQPPKLLIYWASTRESGVPDRFTGSGSGTDFTLTISSVQAEDLAVYYCQNDYWYPFTFGAGTKLELK .
## Output 1.45 µg/mL
